Quick reference for Growth controlling degree (%) Prickly sida among some molecules
# System: prickly sida
# Test method notes: Test Example 1: foliage treatment, upland pot test
# Format: in vivo, Sida spinosa L.
# Experimental parameters: active ingredient 500 g/ha, observed 18th to 23rd day, 0 = non-treated, 100 = complete kill
Could you give me the number in %? Just the number is fine.

Worked cases, Growth controlling degree (%) Prickly sida given:
Molecule: CCC(CC)C(c1cnccc1C(F)(F)F)N(C)C(=O)COc1ccccc1 (centres unmarked)
Measured result: 90
//
Molecule: CC(C)C(c1cnccc1C(F)(F)F)N(C)S(=O)(=O)c1ccc(F)cc1 (racemic)
Measured result: 80
//
Molecule: CC(Oc1ccccc1)C(=O)N(C)C(c1cnccc1C(F)(F)F)C(C)C (centres unmarked)
Measured result: 70

Give the reported value of Growth controlling degree (%) Prickly sida for this record: Cc1ccc(OC(C)C(=O)N(C)C(c2cnccc2C(F)(F)F)C(C)C)cc1 (mixture of isomers)
70

Please supply the value of reported Growth controlling degree (%) Prickly sida for the item CC(C)C(c1cnccc1Cl)N(C)C(=O)Cc1cccc(F)c1 (centres unmarked)
80

----------
# Test system: rice (var. Nihonbare)
# Test method notes: Test Example 3: paddy pot test, transplanted rice
# Assay type: in vivo, Oryza sativa L.
# Experimental parameters: active ingredient 500 g/ha, applied 4th day after transplantation, visually observed 21st day after application, 0 = non-treated, 100 = complete kill
Observable: Growth controlling degree (%) Rice
Report the figure in % without appending any unit label.

Examples with answers:
Compound: CCC(=O)N(CC)C(c1cnccc1C(F)(F)F)c1cccc2ccccc12 (centres unmarked)
Tested target: rice (var. Nihonbare)
Observable: Growth controlling degree (%) Rice
Measured result: 30
//
Compound: CON=Cc1ccc(CC(=O)N(C)C(c2cnccc2C(F)(F)F)C(C)C)cc1 (racemic)
Tested target: rice (var. Nihonbare)
Observable: Growth controlling degree (%) Rice
Measured result: 10
//
Compound: CC(C)C(c1cnccc1C(F)(F)F)N(C)C(=O)Cc1ccccc1Cl (centres unmarked)
Tested target: rice (var. Nihonbare)
Observable: Growth controlling degree (%) Rice
Measured result: 20
//
Compound: CC(C)C(c1cnccc1Cl)N(C)C(=O)Cc1ccc2ccccc2c1 (centres unmarked)
Tested target: rice (var. Nihonbare)
Observable: Growth controlling degree (%) Rice
Measured result: 10

# ---- query compound ----
Give Growth controlling degree (%) Rice for CCN(C(=O)N(C)C(c1cnccc1C(F)(F)F)C(C)C)c1ccccc1 (centres unmarked)
10

----------
# System: velvetleaf
# Test method notes: Test Example 2: soil surface treatment, upland pot test
# Format: in vivo, Abutilon theophrasti MEDIC.
# Experimental parameters: active ingredient 500 g/ha, observed 20th to 28th day
Observable: Growth controlling degree (%) Velvetleaf
A number alone suffices; assume %.

Compound: COc1ccc(OCC(=O)N(C)C(c2cnccc2C(F)(F)F)C(C)C)cc1 (stereo not drawn) [I-244]
Measure unit: %
Growth controlling degree (%) Velvetleaf: 0

Fill in Growth controlling degree (%) Velvetleaf for record CCN(C(=O)Cc1cccc(C(F)(F)F)c1F)C(c1cnccc1C(F)(F)F)C(C)C (stereo not drawn) [I-76]
50

Output Growth controlling degree (%) Velvetleaf of CC(C)C(c1cnccc1C(F)(F)F)N(C)S(=O)(=O)c1ccccc1Cl (racemic) [Compound I-126]
10

Fill in reported Growth controlling degree (%) Velvetleaf for this entry: CC(C)C(c1cnccc1C(F)(F)F)N(C)C(=O)Cc1ccc(C(F)(F)F)cc1F (stereo not drawn) [Compound I-105]
10

----------
# Tested on: corn
# Test method notes: Test Example 2: soil surface treatment, upland pot test
# Type: in vivo, Zea mays L.
# Experimental parameters: active ingredient 500 g/ha, observed 20th to 28th day
Parameter: Growth controlling degree (%) Corn. Scope: all listed entries.
Reply numerically in %, unit not repeated.

Specify measured Growth controlling degree (%) Corn for Cc1ccc(CC(=O)N(C)C(c2cnccc2C(F)(F)F)C(C)C)cc1 (stereo not drawn) .
10

In one line, give reported Growth controlling degree (%) Corn of the entry CC(C)C(c1cnccc1C(F)(F)F)N(C)S(=O)(=O)c1ccc(F)cc1 (racemic) .
20

Give Growth controlling degree (%) Corn for the following molecule: CC(C)C(c1cnccc1Cl)N(C)C(=O)Cc1ccc(Cl)cc1 (stereo not drawn)
10

Identify the reported Growth controlling degree (%) Corn for the following entry. CCC(=O)N(C)C(c1cnccc1C(F)(F)F)C(C)C (stereo not drawn)
60

Provide one value: measured Growth controlling degree (%) Corn of CC(C)C(Br)C(=O)N(C)C(c1cnccc1C(F)(F)F)C(C)C (stereo not drawn)
20

State, in one line, measured Growth controlling degree (%) Corn of COc1ccc(CC(=O)N(C)C(c2cnccc2C(F)(F)F)C(C)C)cc1 (stereo not drawn)
10

Look up and report measured Growth controlling degree (%) Corn for this entry: CC(C)C(c1cnccc1C(F)(F)F)N(C)C(=O)Cc1ccc(F)cc1F (stereo not drawn)
50

Read the entry CC(C)C(c1cnccc1C(F)(F)F)N(C)C(=O)Cc1cccc(C(F)(F)F)c1 (stereo not drawn) and write its reported Growth controlling degree (%) Corn.
50

Name the recorded Growth controlling degree (%) Corn of the item CC(C)C(c1cnccc1Cl)N(C)C(=O)Cc1ccccc1Cl (stereo not drawn) in your answer.
0

----------
# Tested on: soybean
# Test method notes: Test Example 1: foliage treatment, upland pot test
# Type: in vivo, Glycine max Merr.
# Experimental parameters: crop, active ingredient 500 g/ha, observed 18th to 23rd day, 0 = non-treated, 100 = complete kill
Binarize Growth controlling degree (%) Soybean at 70%; below is Condition met, at or above is Condition not met.

Regarding CC(C)C(c1cnccc1C(F)(F)F)N(C)C(=O)Cc1c(F)cccc1Cl (stereo not drawn) , kindly confirm whether its Growth controlling degree (%) Soybean is beneath 70%.
Condition met

Does this molecule meet the criterion Growth controlling degree (%) Soybean < 70%? COc1ccc(CC(=O)N(C)C(c2cnccc2C(F)(F)F)C(C)C)cc1 (stereo not drawn)
Condition met

Does the reported Growth controlling degree (%) Soybean of CCC(C)C(c1cnccc1C(F)(F)F)N(C)C(=O)COc1ccccc1 (stereo not drawn) stay below 70%?
Condition not met

Quick check: does CC(C)C(c1cnccc1C(F)(F)F)N(C)C(=O)Cc1ccc(OC(F)F)cc1 (racemic) have Growth controlling degree (%) Soybean under 70%?
Condition not met

Growth controlling degree (%) Soybean under 70%? Item: CC(C)C(c1cnccc1C(F)(F)F)N(C)C(=O)Cc1c(F)cccc1F (stereo not drawn)
Condition not met

Please state whether Growth controlling degree (%) Soybean is below 70% for CC(Oc1ccc(Br)cc1)C(=O)N(C)C(c1cnccc1C(F)(F)F)C(C)C (mixture of isomers)
Condition not met

----------
Each entry below carries its recorded Growth controlling degree (%) Redroot pigweed.
# System: redroot pigweed
# Test method notes: Test Example 2: soil surface treatment, upland pot test
# Type: in vivo, Amaranthus retroflexus L.
# Experimental parameters: active ingredient 500 g/ha, observed day 21, 0 = non-treated, 100 = complete kill
Please answer in the form of a number followed by its unit of measurement.

Known Growth controlling degree (%) Redroot pigweed results, listed for orientation:
Molecule: CCC(CC)C(c1cnccc1C(F)(F)F)N(C)C(=O)COc1ccccc1 (stereo not drawn)
Tested target: redroot pigweed
Measured result: 70%
//
Molecule: CCC(C)C(c1cnccc1C(F)(F)F)N(C)C(=O)Cc1ccccc1 (stereo not drawn)
Tested target: redroot pigweed
Measured result: 70%

Consider now this further molecule.
Name the recorded Growth controlling degree (%) Redroot pigweed of CC(C)C(c1cnccc1C(F)(F)F)N(C)C(=O)COc1cccc(C(F)(F)F)c1 (stereo not drawn) , assay system redroot pigweed.
50%

----------
A collection of compounds and their measured Growth controlling degree (%) Rice
# System: rice
# Test method notes: Test Example 2: soil surface treatment, upland pot test
# Format: in vivo, Oryza sativa L.
# Experimental parameters: active ingredient 500 g/ha, observed day 21, 0 = non-treated, 100 = complete kill
Please reply with the bare figure in % and do not write the unit itself.

Compound: CCC(C)C(c1cnccc1C(F)(F)F)N(C)C(=O)COc1ccccc1 (stereo not drawn) [I-261]
Measure unit: %
Growth controlling degree (%) Rice: 20

Could you please provide reported Growth controlling degree (%) Rice for CC(C)C(c1cnccc1C(F)(F)F)N(C)C(=O)COc1ccc(F)cc1F (stereo not drawn) [Compound I-246] ? Thanks!
20

Note down Growth controlling degree (%) Rice recorded for CC(C)C(c1cnccc1C(F)(F)F)N(C)C(=O)COc1cc(F)ccc1F (stereo not drawn) [Compound I-245]
35

----------
# System: velvetleaf
# Test method notes: Test Example 1: foliage treatment, upland pot test
# Assay type: in vivo, Abutilon theophrasti MEDIC.
# Experimental parameters: active ingredient 500 g/ha, observed 18th to 23rd day, 0 = non-treated, 100 = complete kill
Observable: Growth controlling degree (%) Velvetleaf

Take a look at these entries with their results.
Compound: CCC(CC)C(c1cnccc1C(F)(F)F)N(C)C(=O)Cc1ccccc1 (stereo not shown)
Tested target: velvetleaf
Growth controlling degree (%) Velvetleaf: 90%

Compound: CC(C)C(c1cnccc1Cl)N(C)C(=O)Cc1ccc(C(F)(F)F)cc1 (stereo not shown)
Tested target: velvetleaf
Growth controlling degree (%) Velvetleaf: 95%

Compound: CCOC(=O)N(C)C(c1cnccc1C(F)(F)F)c1cccc2ccccc12 (stereo not shown)
Tested target: velvetleaf
Growth controlling degree (%) Velvetleaf: 95%

Compound: CC(C)C(c1cnccc1C(F)(F)F)N(C)C(=O)Cc1cccc(C(F)(F)F)c1F (stereo not shown)
Tested target: velvetleaf
Growth controlling degree (%) Velvetleaf: 80%

Compound: CC(C)C(c1cnccc1C(F)(F)F)N(C)C(=O)COc1ccc(F)cc1 (stereo not shown)
Tested target: velvetleaf
Growth controlling degree (%) Velvetleaf: 80%

Indicate the recorded Growth controlling degree (%) Velvetleaf value for this compound: Cc1ccc(S(=O)(=O)N(C)C(c2cnccc2C(F)(F)F)C(C)C)cc1 (racemic)
70%

For CC(C)C(c1cnccc1Cl)N(C)C(=O)Cc1cccc(F)c1 (stereo not shown) , write its Growth controlling degree (%) Velvetleaf.
70%

Given the compound CC(C)C(c1cnccc1C(F)(F)F)N(C)C(=O)Cc1cc(F)ccc1F (stereo not shown) , write its reported Growth controlling degree (%) Velvetleaf.
90%

Give recorded Growth controlling degree (%) Velvetleaf. CC(C)C(c1cnccc1C(F)(F)F)N(C)C(=O)Cc1ccc(C(F)(F)F)cc1 (stereo not shown)
95%

Look up and state reported Growth controlling degree (%) Velvetleaf for CC(C)C(c1cnccc1C(F)(F)F)N(C)C(=O)Cc1ccc(C#N)cc1 (racemic)
70%
